Hello, the source for this data is patent US20250339531A1, in case you need it.

# System: proteins that co-immunoprecipitated with DUX4-CTD constructs expressed in MB135 myoblasts
# Assay comment: LC-MS of proteins co-immunoprecipitated with DUX4-CTD (Table 1) and western validation
# Format: binding, human
# Parameters: key: peptide-spectrum matches (PSMs) per protein
# Study conditions: LC-MS counts of the listed protein co-immunoprecipitated with DUX4-CTD bait longCTD; experiment 4, Dox + IFNG
Field: 4. longCTD + Dox + IFNG. Provide a value for each of the molecules that follow.
Answers are plain numbers.

Below, 2 molecules whose answers are already recorded.
Molecule | Reading
A0A087WW87 (protein, UniProt A0A087WW87 1-121, looked up, full-length) MRLPAQLLGLLMLWVPGSSEDIVMTQTPLSLPVTPGEPASISCRSSQSLLDSDDGNTYLDWYLQKPGQSPQLLIYTLSYRASGVPDRFSGSGSGTDFTLKISRVEAEDVGVYYCMQRIEFP | 5
Q96MG2 (protein, UniProt Q96MG2 1-331, looked up, full-length) MSMTTRAWEELDGGLGSCQALEDHSALAETQEDRASATPRLADSGSVPHDSQVAEGPSVDTRPKKMEKEPAARGTPGTGKERLKAGASPRSVPARKKAQTAPPLQPPPPPPALSEELPWGDLSLNKCLVLASLVALLGSAFQLCRDAVPGEAALQARVPEPWVPPSSAPREPSSPLPKFEAQAPPSAPPAPRAEAEVRPKIPGSREAAENDEEEPGEATGEAVREDRVTLADRGPKERPRREGKPRKEKPRKEERPKKERPRKEERPRAAREPREALPQRWESREGGHRPWARDSRDAEPRKKQAWVSPRRPDEEQRPGSRQKLRAGKGRD | 3

The record that follows has no 4. longCTD + Dox + IFNG shown yet.
Value of measured 4. longCTD + Dox + IFNG for the entry P31947 (protein, UniProt P31947 1-248, looked up, full-length) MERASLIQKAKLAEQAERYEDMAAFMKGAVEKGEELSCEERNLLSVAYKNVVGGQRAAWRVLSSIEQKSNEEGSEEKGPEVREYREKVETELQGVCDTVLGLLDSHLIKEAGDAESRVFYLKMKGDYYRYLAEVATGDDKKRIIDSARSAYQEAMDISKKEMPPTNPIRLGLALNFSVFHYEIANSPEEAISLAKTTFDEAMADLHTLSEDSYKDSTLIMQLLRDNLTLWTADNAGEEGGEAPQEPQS : 6
